As shown below, each of these sequences has a reported switch fluorescence ratio value.
tested on: ATP; experiment: switch fluorescence ratio, 500 uM ATP over buffer (Cy3 cluster intensity, sum of 5 cycles each) (fold (ratio)); higher = stronger signal-on switching upon ATP binding; sequences stand for … in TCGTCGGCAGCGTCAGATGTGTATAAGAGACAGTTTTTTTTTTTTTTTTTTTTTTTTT…TC; conditions: aptamer strand: ATP DNA aptamer (quencher-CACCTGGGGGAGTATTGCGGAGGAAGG + anchor), 100 nM annealed; ATP concentration: 500 uM;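 also: ATP exposure 15 min at 22 °C before imaging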
Returns: the value as a bare number; no unit string appended.

Recorded results for 10 sequences are shown here.
> print(dat)
    sequence.chain  tested.on  quantitative.readout
 1      TTTGGGGTCG        ATP                 0.992
 2      AATGTGTCCC        ATP                 0.991
 3      TTTCAGATGG        ATP                  1.01
 4      GAGATCTGCT        ATP                 0.957
 5      AATACCTGAA        ATP                  1.17
 6      AAATGGTTCC        ATP                  1.72
 7      AGGGATTTAA        ATP                 0.988
 8      CATAGGAGGG        ATP                 0.977
 9      TTGCTTTTGG        ATP                  1.04
10      GAAAGGCAGA        ATP                  1.01

Which value of switch fluorescence ratio has been reported for ATGGAATGGG in the records?
0.959

###

As shown below, each of these sequences has a reported switch fluorescence ratio value.
tested on: ATP; test: switch fluorescence ratio, 500 uM ATP over buffer (Cy3 cluster intensity, sum of 5 cycles each) (fold (ratio)); higher = stronger signal-on switching upon ATP binding; sequences stand for … in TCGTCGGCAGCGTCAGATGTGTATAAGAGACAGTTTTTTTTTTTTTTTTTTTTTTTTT…TC; details: aptamer strand: ATP DNA aptamer (quencher-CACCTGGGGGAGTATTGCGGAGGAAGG + anchor), 100 nM annealed; ATP concentration: 500 uM;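 also: ATP exposure 15 min at 22 °C before imaging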

Recorded results for 3 sequences are shown here.
> print(dat)
   sequence.chain         attribute.measured  result
1      TATCTGGGGG  switch fluorescence ratio    1.01
2      TCTTTTGGGG  switch fluorescence ratio    1.03
3      AGACTTCCGG  switch fluorescence ratio   0.969

Which value of switch fluorescence ratio has been reported for ATGGAAAATT in the records?
1.04

Which value of switch fluorescence ratio has been reported for TCAAAGTTTT in the records?
1.01

Which value of switch fluorescence ratio has been reported for TTGAAGGGTG in the records?
1.05

Which value of switch fluorescence ratio has been reported for GGAGGCGGGG in the records?
1.08

Which value of switch fluorescence ratio has been reported for GCAATGGTGG in the records?
1.04

Which value of switch fluorescence ratio has been reported for GATGTTTGGG in the records?
0.987

Which value of switch fluorescence ratio has been reported for TTGAAGGTGG in the records?
1.08

Which value of switch fluorescence ratio has been reported for TAGAGGTAAT in the records?
1.01

Which value of switch fluorescence ratio has been reported for GATGTAGGAT in the records?
0.978

Which value of switch fluorescence ratio has been reported for TGCTGGCCTG in the records?
1.01

###

test system: ATP; experiment: switch fluorescence ratio, 500 uM ATP over buffer (Cy3 cluster intensity, sum of 5 cycles each) (fold (ratio)); higher = stronger signal-on switching upon ATP binding; sequences stand for … in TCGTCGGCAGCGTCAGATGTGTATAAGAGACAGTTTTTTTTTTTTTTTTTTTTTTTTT…TC; settings: aptamer strand: ATP DNA aptamer (quencher-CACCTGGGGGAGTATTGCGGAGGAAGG + anchor), 100 nM annealed; ATP concentration: 500 uM;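 also: ATP exposure 15 min at 22 °C before imaging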
As shown below, each of these sequences has a reported switch fluorescence ratio value.
Returns: the value as a bare number; no unit string appended.

Recorded results for 8 sequences are shown here.
> print(dat)
   sequence.chain         attribute.measured  quantitative.readout
1      AGGGCCCCGG  switch fluorescence ratio                  1.03
2      CAATATCCCG  switch fluorescence ratio                  1.05
3      CGTTTCAGAT  switch fluorescence ratio                  1.02
4      ACGAGGGAAA  switch fluorescence ratio                  2.12
5      ATGTTCTCTG  switch fluorescence ratio                  1.03
6      ATAGAGCGCT  switch fluorescence ratio                 0.988
7      GTGGCTAACG  switch fluorescence ratio                 0.972
8      TATGTTACGG  switch fluorescence ratio                  1.03

Which value of switch fluorescence ratio has been reported for GCGGCATAAT in the records?
1.02

Which value of switch fluorescence ratio has been reported for TTTGGGTATT in the records?
0.968

Which value of switch fluorescence ratio has been reported for TGATTTTGGG in the records?
0.997

Which value of switch fluorescence ratio has been reported for GCTGTTTTTT in the records?
1

Which value of switch fluorescence ratio has been reported for TGGGATGTGG in the records?
0.986

###

system: ATP; assay: switch fluorescence ratio, 500 uM ATP over buffer (Cy3 cluster intensity, sum of 5 cycles each) (fold (ratio)); higher = stronger signal-on switching upon ATP binding; sequences stand for … in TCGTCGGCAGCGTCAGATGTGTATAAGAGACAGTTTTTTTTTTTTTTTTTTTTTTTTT…TC; conditions: aptamer strand: ATP DNA aptamer (quencher-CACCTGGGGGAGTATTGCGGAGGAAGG + anchor), 100 nM annealed; ATP concentration: 500 uM;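 also: ATP exposure 15 min at 22 °C before imaging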
Assign class by switch fluorescence ratio: not lower than 1 means fulfilled; lower than 1 means not fulfilled.

Some solved entries appear below for comparison.
> print(dat)
   sequence.chain  tested.on     class.name
1      TGTGGCAATT        ATP      fulfilled
2      GCTAGGCGGA        ATP      fulfilled
3      TGGAAAGTAC        ATP      fulfilled
4      GATTAAAACT        ATP      fulfilled
5      ATTACTGGTG        ATP      fulfilled
6      CCGGGTCGGT        ATP  not fulfilled
7      CGAAAAAAAT        ATP      fulfilled
8      GGGATAACGG        ATP  not fulfilled

Determine whether measured switch fluorescence ratio meets or exceeds 1 for TCCTAGGCGT
fulfilled

Determine whether measured switch fluorescence ratio meets or exceeds 1 for GATGGACAGC
fulfilled

Determine whether measured switch fluorescence ratio meets or exceeds 1 for ATTTGGTGGG
not fulfilled

###

test system: ATP; assay: switch fluorescence ratio, 500 uM ATP over buffer (Cy3 cluster intensity, sum of 5 cycles each) (fold (ratio)); higher = stronger signal-on switching upon ATP binding; sequences stand for … in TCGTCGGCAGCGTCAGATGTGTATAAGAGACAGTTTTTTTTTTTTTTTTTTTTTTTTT…TC; conditions: aptamer strand: ATP DNA aptamer (quencher-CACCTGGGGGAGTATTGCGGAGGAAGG + anchor), 100 nM annealed; ATP concentration: 500 uM;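 also: ATP exposure 15 min at 22 °C before imaging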
As shown below, each of these sequences has a reported switch fluorescence ratio value.
Returns: the value as a bare number; no unit string appended.

Recorded results for 4 sequences are shown here.
> print(dat)
   sequence.chain  tested.on         attribute.measured  quantitative.readout
1      GCATAAAGGA        ATP  switch fluorescence ratio                 0.968
2      CTTTGAGCGA        ATP  switch fluorescence ratio                  1.11
3      CAGATGGGAG        ATP  switch fluorescence ratio                  1.02
4      TGGATGTCAT        ATP  switch fluorescence ratio                  1.07

GET /values?readout=switch fluorescence ratio&system=ATP&item= TCAGGTAATT;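 also: ATP exposure 15 min at 22 °C before imaging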
1.03

GET /values?readout=switch fluorescence ratio&system=ATP&item= GTGGCACCTA;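 also: ATP exposure 15 min at 22 °C before imaging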
0.988

GET /values?readout=switch fluorescence ratio&system=ATP&item= TTTGTTCACT;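 also: ATP exposure 15 min at 22 °C before imaging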
0.989

GET /values?readout=switch fluorescence ratio&system=ATP&item= CGGGGGGTTA;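 also: ATP exposure 15 min at 22 °C before imaging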
1.01

GET /values?readout=switch fluorescence ratio&system=ATP&item= TGGTAATATC;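 also: ATP exposure 15 min at 22 °C before imaging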
1.01

GET /values?readout=switch fluorescence ratio&system=ATP&item= AATCGTTGAA;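 also: ATP exposure 15 min at 22 °C before imaging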
1.01

GET /values?readout=switch fluorescence ratio&system=ATP&item= CGAGGATAAA;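 also: ATP exposure 15 min at 22 °C before imaging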
0.994

GET /values?readout=switch fluorescence ratio&system=ATP&item= GATTTGGTCA;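 also: ATP exposure 15 min at 22 °C before imaging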
0.998

GET /values?readout=switch fluorescence ratio&system=ATP&item= GCATGGGGTA;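 also: ATP exposure 15 min at 22 °C before imaging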
1.05

GET /values?readout=switch fluorescence ratio&system=ATP&item= CTAATATCTC;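 also: ATP exposure 15 min at 22 °C before imaging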
1.02
